- TEST_SYSTEM: NAD-dependent protein deacylase sirtuin-6 (Homo sapiens)
- ASSAY_TEXT: Inhibition of SIRT6 (unknown origin) at 300 uM using (DABCYL)ISGASE(MyK)DIVHSE(EDANS)G substrate in presence of NAD followed by 1 hr incubation with trypsin by FRET assay
RECORDED_ENDPOINT: inhibition

compound=NC(=O)c1cccnc1 recorded_endpoint=inhibition result="> 50%"
compound=O=C1CCc2c(ccc3ccccc23)O1 recorded_endpoint=inhibition result="< 50%"
compound=N#C/C(=C\c1ccc(-c2cc(Cl)ccc2Cl)o1)C(=O)Nc1cccc2ncccc12 recorded_endpoint=inhibition result="< 50%"
compound="CC(NC(=O)c1ccccc1/N=C/c1c(O)ccc2ccccc12)c1ccccc1 (centres undefined)" recorded_endpoint=inhibition result="< 50%"
